- testedSystem: Ubiquitin carboxyl-terminal hydrolase 28 (Homo sapiens) (UniProt Q96RU2)
- Sequence (Q96RU2 whole entry, looked up): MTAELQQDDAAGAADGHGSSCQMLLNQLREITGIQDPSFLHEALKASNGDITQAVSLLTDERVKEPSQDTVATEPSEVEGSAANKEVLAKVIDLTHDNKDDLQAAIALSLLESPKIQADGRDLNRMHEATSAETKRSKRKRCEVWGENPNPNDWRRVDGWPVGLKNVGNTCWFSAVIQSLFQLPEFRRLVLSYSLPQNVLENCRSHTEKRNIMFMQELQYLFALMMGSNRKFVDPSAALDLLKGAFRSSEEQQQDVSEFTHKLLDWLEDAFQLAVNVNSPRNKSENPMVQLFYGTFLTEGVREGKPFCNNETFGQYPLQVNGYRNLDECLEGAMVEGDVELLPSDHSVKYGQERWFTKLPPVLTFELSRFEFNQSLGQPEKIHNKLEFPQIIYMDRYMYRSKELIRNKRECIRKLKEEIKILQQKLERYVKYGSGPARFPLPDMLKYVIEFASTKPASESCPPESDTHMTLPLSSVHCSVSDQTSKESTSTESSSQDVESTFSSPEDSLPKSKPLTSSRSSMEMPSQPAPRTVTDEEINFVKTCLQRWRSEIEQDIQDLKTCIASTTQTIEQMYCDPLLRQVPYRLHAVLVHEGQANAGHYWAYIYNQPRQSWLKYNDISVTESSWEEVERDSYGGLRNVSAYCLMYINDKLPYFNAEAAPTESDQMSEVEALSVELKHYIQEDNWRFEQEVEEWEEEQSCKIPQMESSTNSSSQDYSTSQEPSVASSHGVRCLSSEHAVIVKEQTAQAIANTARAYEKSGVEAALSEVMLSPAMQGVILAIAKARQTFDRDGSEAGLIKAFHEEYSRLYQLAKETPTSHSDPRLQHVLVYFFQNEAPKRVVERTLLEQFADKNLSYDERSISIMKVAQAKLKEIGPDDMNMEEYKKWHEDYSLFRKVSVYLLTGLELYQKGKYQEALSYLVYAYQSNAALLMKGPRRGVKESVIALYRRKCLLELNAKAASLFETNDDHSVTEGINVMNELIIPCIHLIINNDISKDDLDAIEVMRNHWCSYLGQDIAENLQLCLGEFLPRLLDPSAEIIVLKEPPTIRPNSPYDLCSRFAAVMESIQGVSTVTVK
- protocolDetails: Concentration-response biochemical assay confirming initial hits as inhibitors of ubiquitin-specific protease 28 (AID 1645866)
- measurementConditions: purified USP28, ubiquitin-rhodamine fluorescence, 30 min
Active and inactive are the calls of the source.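 Rule for the calls: active = in confirmatory dose-response testing, peak deubiquitinase inhibition of 30% or more; inactive = the rest.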
Classes used: active, inactive

compound | categoryLabel
Cc1cccc(NC(=O)Cn2cnc(-c3noc(-c4ccccc4)n3)c2)c1C | active
O=C(Nc1ccc2c(c1)OCCO2)c1ccc(N2CCCC2=O)cc1 | active
CC(NC(=O)c1ccccc1)c1nc2ccccc2n1CC(=O)Nc1ccc2c(c1)OCO2 (stereo not given) | active
Cc1cc(Cl)ccc1NC(=O)c1cc(-c2cccnc2)n[nH]1 | inactive
O=C(COc1ccc(Cl)cc1Cl)Nc1ccccc1-c1nc2ccccc2[nH]1 | active
O=C(NCc1ccc(Br)cc1)c1ccc(-c2cccnc2)nc1 | active
Cn1nc(-c2nc(-c3ccccc3)no2)c2c1CCN(C(=O)C1CCCC1)C2 | active
C[C@H](NC(=O)Cc1ccccc1F)c1nc2cc(-c3ccccc3F)ncn2n1 | inactive
COc1cc(NC(=O)c2cc(CN3CCOCC3)on2)cc(OC)c1 | active
CCOC(=O)c1sc2c(c1C)c(=O)n(Cc1ccccc1)c(=O)n2CC(N)=O | active

From: PubChem BioAssay AID1645866
